- TARGET: T1, αvβ5 integrin on transfected K562 cells (UniProt P06756 31-1048; P18084 24-799, limits assumed)
- T1 construct: whole, on cells
- T1 sequence (P06756 31-1048 limits assumed, chain 1 of 2): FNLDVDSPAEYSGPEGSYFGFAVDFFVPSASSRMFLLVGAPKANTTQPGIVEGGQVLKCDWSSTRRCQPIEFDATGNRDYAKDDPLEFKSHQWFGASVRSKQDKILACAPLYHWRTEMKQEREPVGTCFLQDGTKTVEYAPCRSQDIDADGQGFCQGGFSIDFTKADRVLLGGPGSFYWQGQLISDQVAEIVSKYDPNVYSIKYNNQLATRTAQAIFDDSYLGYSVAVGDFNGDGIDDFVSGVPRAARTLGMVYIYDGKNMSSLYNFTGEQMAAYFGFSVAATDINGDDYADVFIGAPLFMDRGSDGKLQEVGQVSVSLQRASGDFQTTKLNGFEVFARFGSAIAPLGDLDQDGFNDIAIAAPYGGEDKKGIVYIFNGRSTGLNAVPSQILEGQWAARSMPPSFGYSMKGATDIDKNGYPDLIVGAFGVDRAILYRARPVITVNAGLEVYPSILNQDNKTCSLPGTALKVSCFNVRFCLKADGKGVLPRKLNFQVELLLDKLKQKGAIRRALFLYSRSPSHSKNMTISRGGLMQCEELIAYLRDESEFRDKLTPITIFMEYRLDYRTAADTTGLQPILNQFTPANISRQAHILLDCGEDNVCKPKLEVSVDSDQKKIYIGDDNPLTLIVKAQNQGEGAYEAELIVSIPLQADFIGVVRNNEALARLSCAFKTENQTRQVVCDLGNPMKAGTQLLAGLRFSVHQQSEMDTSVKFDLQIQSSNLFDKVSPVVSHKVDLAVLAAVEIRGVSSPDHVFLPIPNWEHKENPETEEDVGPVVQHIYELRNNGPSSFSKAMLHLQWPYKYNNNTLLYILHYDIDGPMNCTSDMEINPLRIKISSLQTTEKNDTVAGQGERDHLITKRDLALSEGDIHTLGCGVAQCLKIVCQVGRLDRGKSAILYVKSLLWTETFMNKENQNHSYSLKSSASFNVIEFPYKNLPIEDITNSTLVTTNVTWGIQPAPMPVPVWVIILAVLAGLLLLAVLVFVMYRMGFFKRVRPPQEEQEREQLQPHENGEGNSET
- T1 sequence (P18084 24-799 limits assumed, chain 2 of 2): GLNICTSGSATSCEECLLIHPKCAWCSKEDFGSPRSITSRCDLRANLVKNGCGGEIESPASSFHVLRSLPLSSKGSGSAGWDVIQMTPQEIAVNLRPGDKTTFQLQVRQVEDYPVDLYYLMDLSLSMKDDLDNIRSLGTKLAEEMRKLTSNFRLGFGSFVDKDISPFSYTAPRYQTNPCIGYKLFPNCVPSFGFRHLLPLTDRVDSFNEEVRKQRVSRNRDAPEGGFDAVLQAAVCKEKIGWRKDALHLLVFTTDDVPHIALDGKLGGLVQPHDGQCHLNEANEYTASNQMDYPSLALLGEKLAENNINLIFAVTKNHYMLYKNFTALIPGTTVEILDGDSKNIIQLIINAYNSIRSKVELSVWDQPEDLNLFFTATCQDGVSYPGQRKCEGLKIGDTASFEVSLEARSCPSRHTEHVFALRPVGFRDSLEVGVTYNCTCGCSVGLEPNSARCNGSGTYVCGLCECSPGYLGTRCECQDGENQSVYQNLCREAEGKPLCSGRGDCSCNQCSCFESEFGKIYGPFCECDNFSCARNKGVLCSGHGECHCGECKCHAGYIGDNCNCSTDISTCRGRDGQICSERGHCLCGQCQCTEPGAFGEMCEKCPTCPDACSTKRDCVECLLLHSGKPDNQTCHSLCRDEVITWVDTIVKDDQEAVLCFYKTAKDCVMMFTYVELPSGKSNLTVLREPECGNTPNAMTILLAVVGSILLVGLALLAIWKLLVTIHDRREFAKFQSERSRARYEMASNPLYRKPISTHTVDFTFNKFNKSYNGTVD
- TEST: flow cytometry on K562 cells transfected with αvβ5
PROPERTY LABEL: binding result

INSERT INTO results (binder, result) VALUES
  ('scVEGF-mM (designed binder, Soluble protein with C-terminal hexahistidine tag, with or without N-terminal FLAG tag (tags not included in the parts); also called scVEGFmut-M) EVVKAMDVYRRSYCHPVETSVDILQEYPDEIEYIFKPSCVPLMRCGGCCNDAGLECVPTEESNTTMQIMRIKPYRGQHIGEMSFLQHNKCECRPKKDGSTSGSGKSSEGKGEVVKFMDVYQRSYCHPIETLVDIFQEYPDEIEYAFKPSCVSLMRCGGCCNNEGLECVPTEESNITVQIMGAKPHQGQHIGEMSFLQHNKCECRPKKD', 'no binding'),
  ('scVEGF-mJ (designed binder, Soluble protein with C-terminal hexahistidine tag, with or without N-terminal FLAG tag (tags not included in the parts); also called scVEGFmut-J) EIVKARDVYQRSYCHPIETLVDILQEYPDEIEYIFKPSCVPLMRCGGCCNDAGLECVPTEESNITMQIMRIKPYQGHHIGEMSFLQHNKCECRPKKDGSTSGSGKSSEGKGEVVKFMDVYQRSYCHPIETLVDIFQEYPDEIEYAFKPSCVPLMRCGGCCNNEGLECVPTEESNITMQIMRAKPHQGQHTGEMSFLQHNKCECRPKKD', 'no binding');

Origin of values: patent US20160039895A1
